Taken from patent US20240043504A1.

The following binders are listed with their measured MFI values.
Target: SARS-CoV-2 Spike Protein (RBD)(R319-F541).hFc (SARS-CoV-2)
Test: Luminex, supernatant
MEASUREMENT_TYPE: MFI (MFI)

[[record]]
binder = "mAb10939 (antibody, V domains shown) VH: EVQLVESGGGLVQPGGSLRLSCAASGLTVSSNYMNWVRQVPGKGLEWVSVIYSGGSKFYVDSVKGRFTISRHNSKNTLYLQMNSLRPEDTAVYYCTRDAQYYGMDVWGQGTTVTVSS VL: DIQMTQSPSSLSASVGDRVTITCRASQSISTYLHWYQQKPGEAPKLLIYAASSLQSGVPSRFSGSGSGTDFTLTISSLQPEDFATYYCQQSYSTPPEIFGQGTKLEIKR"
measurement_type = "MFI"
quantitative_result = 32900

[[record]]
binder = "mAb10985 (antibody, V domains shown) VH: EVQLVESGGGLVQPGRSLRLSCAASGFTFDDYAMHWVRQAPGKGLEWVSGISWNRGSIGYADSVKGRFTISRDNAKNSLYLQMSSLRAEDTALYYCAKDGERWDSVVVPSARNGMDVWGQGTTVTVSS VL: QSVLTQPPSVSGAPGQRVTISCTGSSSNIGAGYDVHWYQQLPGTAPKLLIYGNSNRPSGVPDRFSGSKSGTSASLAITGLQAEDEADYYCQSYDSSLSGSYVFGTGTKVTVLG"
measurement_type = "MFI"
quantitative_result = 31100

[[record]]
binder = "mAb10913 (antibody, V domains shown) VH: EVQLVESGGGLVQPGGSLRLSCAASGFTFRNYEMNWVRQAPGKGLEWVSYITSSGSTMYYADSVKGRFTISRDNAKNSLYLQMNSLRAEDTAVYYCARDGFYYYYAMDVWGQGTTVTVSS VL: QSVLTQPPSVSAAPGQKVTISCSGSSSNIGNNYVSWYQQLPGTAPKLLIYDNNKRPSGIPDRFSGSKSGTSATLGITGLQTGDEADYYCGTWDSSLSVGRVFGTGTKVTVLG"
measurement_type = "MFI"
quantitative_result = 31900

[[record]]
binder = "mAb10954 (antibody, V domains shown) VH: EVQLVESGGGLVQPGGSLRLSCAASGITVSSNYMSWVRQAPGKGLEWVSLIYSGGSTYYADSVKGRFTISRDNSKNTLYLQMNSLRVEDTAVYYCARDHGMAAAGYNYWGQGTLVTVSS VL: DIQMTQSPSSLSASVGDRVTITCQASQDINKYLNWYQQKPGKAPKLLIYDASNLETGVPSRFSGSGSGTDFTFTINSLQPEDFATYFCQQYDNLPPAFGQGTKVEIKR"
measurement_type = "MFI"
quantitative_result = 31800

[[record]]
binder = "mAb10971 (antibody, V domains shown) VH: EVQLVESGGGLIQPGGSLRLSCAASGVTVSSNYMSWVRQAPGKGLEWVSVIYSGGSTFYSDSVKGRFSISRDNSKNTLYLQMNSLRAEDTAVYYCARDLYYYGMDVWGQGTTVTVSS VL: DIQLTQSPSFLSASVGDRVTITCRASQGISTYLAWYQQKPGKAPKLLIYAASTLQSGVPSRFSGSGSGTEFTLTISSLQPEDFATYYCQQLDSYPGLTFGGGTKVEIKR"
measurement_type = "MFI"
quantitative_result = 30000

[[record]]
binder = "mAb10957 (antibody, V domains shown) VH: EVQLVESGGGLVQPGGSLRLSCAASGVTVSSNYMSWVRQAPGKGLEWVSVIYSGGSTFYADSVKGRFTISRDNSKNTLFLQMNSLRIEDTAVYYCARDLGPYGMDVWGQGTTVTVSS VL: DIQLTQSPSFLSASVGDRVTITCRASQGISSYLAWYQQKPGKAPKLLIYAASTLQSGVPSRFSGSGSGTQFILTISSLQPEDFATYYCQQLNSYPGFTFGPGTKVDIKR"
measurement_type = "MFI"
quantitative_result = 22600

[[record]]
binder = "mAb10982 (antibody, V domains shown) VH: EVQLVESGGGLVQPGGSLRLSCAASGLTVSSNYMSWVRQAPGKGLEWVSVIYSGGTTYYADSVKGRFTISRHNSKNTLSLQMNSLRAEDTAVYYCARGEGANYYGMDVWGQGTTVTVSS VL: QSVLTQPPSVSGAPGQRVTISCTGSSSNIGTGYDVHWYQQLPGTAPKLLIYGNSNRPSGVPDRFSGSKSGTSASLAITGLQAEDEADYYCQSYDSSLSGYVVFGGGTKLTVLG"
measurement_type = "MFI"
quantitative_result = 23000

[[record]]
binder = "mAb10967 (antibody, V domains shown) VH: EVQLVESGGGLVQPGGSLRLSCAASGFTVSSNYMSWVRQAPGKGLEWVSVIYPGGSTFYADSVKGRFTISRDNSKNTLYLQMNSLRAEDTAVYYCARDQRDFAWGQGTLVTVSS VL: DIQMTQSPSSLSASVGDRVTITCQASQDISNYLNWYQQKPGKAPKLLIYDASNLETGVPSRFSGSGSGTDFTFTISGLQPEDIATYYCQQYDNLPPTFGQGTRLEIKR"
measurement_type = "MFI"
quantitative_result = 28700

[[record]]
binder = "mAb10984 (antibody, V domains shown) VH: EVQLVESGGGLVQPGGSLRLSCAASGLTVNRNYMSWVRQAPGKGLEWVSLIYSGGSTYYADSVKGRFTISRDNSKNTLYLQMNSLRLEDTAVYYCARGELGIPYGMDVWGQGTTVTVSS VL: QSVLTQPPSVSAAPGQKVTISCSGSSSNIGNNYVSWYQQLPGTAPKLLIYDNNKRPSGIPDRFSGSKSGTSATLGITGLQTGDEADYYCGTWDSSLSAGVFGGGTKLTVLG"
measurement_type = "MFI"
quantitative_result = 28400

[[record]]
binder = "mAb10935 (antibody, V domains shown) VH: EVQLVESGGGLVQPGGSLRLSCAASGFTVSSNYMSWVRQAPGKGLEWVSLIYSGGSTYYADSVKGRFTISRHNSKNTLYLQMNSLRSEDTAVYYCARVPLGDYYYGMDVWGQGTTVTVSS VL: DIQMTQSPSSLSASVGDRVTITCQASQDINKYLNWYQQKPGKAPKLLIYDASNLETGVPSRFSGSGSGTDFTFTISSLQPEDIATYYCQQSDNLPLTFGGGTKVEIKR"
measurement_type = "MFI"
quantitative_result = 35600

